Every entry's value here was drawn from PubChem BioAssay AID1417.

molecular target: Induced myeloid leukemia cell differentiation protein Mcl-1 (Homo sapiens); test: Mcl-1/Noxa binding inhibitor potency, dose response, biochemical, TR-FRET (AID 1417); settings: Mcl-1/Noxa peptide interaction, cell-free TR-FRET (terbium/rhodamine), 2 h; measured here: absolute IC50
Assignment: determine reported IC50 for the given molecules.

Past entries and their recorded results:
>>> measured("O=C1C(=Cc2ccc(Br)o2)C(=O)c2ccccc21")
"< 400 nM"
>>> measured("Cc1n[nH]c(=S)n(NC(=O)/C=C/C(=O)Nn2c(=S)[nH]nc(C)c2=O)c1=O")
"< 400 nM"

`COc1ccc(C2=CC(=O)C=CC2=O)cc1` yielded IC50 of < 400 nM
